System: EKVX
Assay: NCI tumour cell line growth inhibition, 48 h
Calls of active or inactive are those of the source. No stated cut-off is given here; in the data, active = GI50 up to about 1.1 µM and inactive = higher.
Choose one outcome from this list and give only that: active, inactive

compound	assigned_label
COc1cc(Br)c(CC2C3=C(CCN2C(=O)C2CCC2)CC2(CC3)OCCO2)cc1O (stereo not drawn)	inactive
CCC1OCCN1C(C)C (stereo not drawn)	inactive
O=C(N/N=C/c1c(-c2ccccc2)no[n+]1[O-])N1CCOCC1	inactive

Exercise: Please indicate how the test categorized `O=C(O)Cc1ccc(-n2nnc3c(=O)[nH][nH]c(=O)c32)cc1` .
Solution: inactive

Exercise: For this compound, state the assay outcome: CC1=CC[C@H](C(C)C)C(C(O)[C@@H](C)O[Si](c2ccccc2)(c2ccccc2)C(C)(C)C)C1=O (stereo partly drawn)
Solution: inactive
